- assay.info: small-molecule microarray binders of probe aEGFR, primary screen, biochemical, biotinylated probe, 635/667 nm fluorescence (AID 1097);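 also: probe is a biotinylated anti-EGFR antibody binding compounds printed on slides; score combines fluorescence near 667 nm and signal to noise of each spot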
- condition.details: higher = more signal
Note to self: values exactly at -0.004 are label 1. So composite z-score at or above -0.004 is label 1, below is label 0.

{"compound": "COc1cc(OC)c(C(O)C2C=CC3C(=O)NC(=O)C3N2Nc2ccc(Cl)cc2Cl)cc1Br (centres undefined)", "discrete.label": "label 1"}
{"compound": "CC(C)(C)OC(=O)CC[C@@]12N=C(c3ccc(OCCCO)cc3)O[C@@H]1c1ccccc1N(CCS(=O)(=O)c1ccccc1)C2=O", "discrete.label": "label 0"}
{"compound": "CN1C(=O)C2C=CC(C(O)c3cc(C(F)(F)F)cc(C(F)(F)F)c3)N(N3CCCCC3)C2C1=O (centres undefined)", "discrete.label": "label 1"}
{"compound": "COc1cc2c(cc1OC)CN(C(=O)[C@H]1[C@@H]3C(=O)O[C@@H](c4ccccc4)[C@@H](c4ccccc4)N3[C@@H](c3ccc(O)cc3)[C@]13C(=O)Nc1ccc(C#CC4=CCCCC4)cc13)CC2", "discrete.label": "label 1"}
{"compound": "COCC(=C=CC[C@H](O)c1ccccc1OCCO)C[C@H](O)c1cc(Cl)cc(Cl)c1O", "discrete.label": "label 0"}
{"compound": "COc1ccc(C(=O)O[C@H]2CC[C@]3(C)C4=C(CCC3C2(C)C)[C@]2(C)CC[C@H]([C@H](C)CCCC(C)C)[C@@]2(C)CC4)cc1 (some centres undefined)", "discrete.label": "label 0"}
{"compound": "CC(C)c1ccc(NN2C(C(O)C(c3ccccc3)c3ccccc3)C=CC3C(=O)N(c4ccccc4)C(=O)C32)cc1 (centres undefined)", "discrete.label": "label 1"}
{"compound": "C=C(COC)/C(=C/C[C@@H](OC(C)=O)c1ccc(OCCO)cc1)c1cc(C(=O)OC)ccc1OC", "discrete.label": "label 0"}
{"compound": "COc1ccc([Si](C)(C)[C@H]2[C@H](CCO)O[C@@]3(C(=O)N(Cc4ccc(N5C(=O)COc6ccccc65)cc4)c4ccccc43)[C@@H]2C)cc1", "discrete.label": "label 0"}
{"compound": "CCOC1=C2C(CN(S(=O)(=O)c3ccc(C)cc3)C2c2ccc(C)cc2)C2C(=O)N(c3ccccc3)C(=O)C2C1 (centres undefined)", "discrete.label": "label 1"}
{"compound": "COCCOC(=O)N1C(=O)[C@@]2(c3cc(C#CCCO)ccc31)[C@H](C(=O)N1CCc3cc(OC)c(OC)cc3C1)[C@H]1C(=O)O[C@H](c3ccccc3)[C@H](c3ccccc3)N1[C@@H]2c1ccc(O)cc1", "discrete.label": "label 0"}
{"compound": "O=C1OCC=C[C@H]2OC34C=CCN(CCN5CCOCC5)C(=O)[C@H]3N(CCCO)C(=O)[C@@H]4[C@@H]12 (some centres undefined)", "discrete.label": "label 0"}
{"compound": "CN1C(=O)C2C=CC(C(O)c3cccs3)N(Nc3ccccc3)C2C1=O (centres undefined)", "discrete.label": "label 0"}

----------
- target.entity: Dickkopf-related protein 1 (Homo sapiens) (UniProt O94907)
- Sequence (O94907 whole entry, looked up): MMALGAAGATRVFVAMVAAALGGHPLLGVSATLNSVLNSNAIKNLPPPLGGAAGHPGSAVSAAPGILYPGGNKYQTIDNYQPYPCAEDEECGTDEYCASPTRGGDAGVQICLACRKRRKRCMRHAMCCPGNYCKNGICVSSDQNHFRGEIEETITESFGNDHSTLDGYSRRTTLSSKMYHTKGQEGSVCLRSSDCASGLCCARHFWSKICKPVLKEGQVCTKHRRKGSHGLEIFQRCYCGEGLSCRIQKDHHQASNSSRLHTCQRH
- assay.info: DKK1 binders on small-molecule microarrays, primary screen, biochemical, small-molecule microarray, 635 nm fluorescence scan (AID 1106);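 also: score merges emission near 667 nm with signal to noise over three replicate slides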
- condition.details: DKK1 binding, higher = more signal
Here, each record is paired with measured composite z-score data.
assay.metric: composite z-score

{"compound": "COc1cc2c(cc1O)C(C1CC1)N(Cc1cc3c(cc1Br)OCO3)CC2 (configuration not stated)", "target.entity": "Dickkopf-related protein 1 (Homo sapiens) (UniProt O94907)", "reading": -0.948}
{"compound": "CCOC(=O)C[C@H]1[C@H](OC(=O)c2ccc(C(=O)c3ccccc3)cc2)[C@@H](NC(=O)c2ccc(-c3ccccc3)cc2)c2cc(OCCCO)ccc2N1C(=O)c1ccccc1", "target.entity": "Dickkopf-related protein 1 (Homo sapiens) (UniProt O94907)", "reading": 0.321}
{"compound": "CN(C)CCCNC(=O)[C@@]1(C)c2ccccc2C(=O)N(Cc2cc(F)cc(C(F)(F)F)c2)[C@H]1c1ccc(CO)cc1", "target.entity": "Dickkopf-related protein 1 (Homo sapiens) (UniProt O94907)", "reading": -0.878}
{"compound": "COCCn1c(C(=O)N2CCCC2)cc2c1C[C@H]1CN(C(=O)c3ccccc3)[C@@](Cc3ccc(F)cc3)(C(=O)OC)[C@@H]21", "target.entity": "Dickkopf-related protein 1 (Homo sapiens) (UniProt O94907)", "reading": 0.131}
{"compound": "[N-]=[N+]=NCc1ccccc1C[C@]1(C(=O)NCC(O)CO)N=C(c2ccc(OCCCO)cc2)O[C@H]1c1ccccc1 (some centres not stated)", "target.entity": "Dickkopf-related protein 1 (Homo sapiens) (UniProt O94907)", "reading": -1.37}
{"compound": "CC(C)C[C@@H]1NC(=O)[C@H]2C[C@@H](C(=O)NCCCCCCN)[C@@H](c3ccc(O)cc3)N2C1=O", "target.entity": "Dickkopf-related protein 1 (Homo sapiens) (UniProt O94907)", "reading": 0.731}
{"compound": "COc1ccc([Si](C)(C)[C@@H]2[C@@H](CC(=O)N3Cc4ccccc4C[C@H]3CO)O[C@]3(C(=O)N(C)c4c(Br)cc(C)cc43)[C@H]2C)cc1", "target.entity": "Dickkopf-related protein 1 (Homo sapiens) (UniProt O94907)", "reading": 0.685}

----------
- target.entity: Neurogenic locus notch homolog protein 2 (Homo sapiens)
- assay.info: Notch2 binders on small-molecule microarrays, primary screen, biochemical, small-molecule microarray, 635 nm fluorescence, stem cell growth factors (AID 1073)
- condition.details: Notch2 binding, higher = more signal

{"compound": "C[C@@H]1ON(c2cccc(C(=O)OC(C)(C)C)c2)[C@H](c2ccc(Br)cc2)[C@H]1C(=O)N1C(=O)OC[C@H]1Cc1ccccc1", "composite z-score": 1.37}
{"compound": "C=C/C=C/[C@H]1C(=C)CN([C@@H](Cc2ccccc2)C(=O)OC)[C@@H]1[C@H](O)Cc1ccccc1", "composite z-score": -1.06}
{"compound": "C=CCN1C(=O)[C@]2(O[C@H](CCO)[C@@H]([Si](C)(C)c3ccc(OC)cc3)[C@@H]2C)c2cc(N3C(=O)c4cccc5cccc3c45)ccc21", "composite z-score": 0.322}
{"compound": "CCOC(=O)C[C@H]1[C@H](OC(=O)c2cc3ccccc3oc2=O)[C@@H](NC(=O)C2CCCCC2)c2cc(OCCCO)ccc2N1C(=O)c1ccccc1", "composite z-score": 1.29}
{"compound": "O=C1O[C@H](c2ccccc2)[C@H](c2ccccc2)N2[C@H]1[C@@H](C(=O)O)[C@]1(C(=O)Nc3ccc(C#CCCO)cc31)[C@H]2c1ccc(O)cc1", "composite z-score": -0.665}
{"compound": "CCOC(=O)[C@H]1CC=C2CC1C(=O)N1CCC[C@@H]1[C@@H]2O[Si](C)(C)C(C)(C)C (some centres not stated)", "composite z-score": -1.9}
{"compound": "COCCCNC(=O)[C@@]1(Cc2ccccc2)N=C(c2ccc(OCCCO)cc2)O[C@H]1c1ccccc1", "composite z-score": 0.82}

----------
- assay.info: mitochondrial membrane potential change in A549 cells, profiling panel, cell-based, JC-1 fluorescence, basal, 24 h, 100 nL (AID 1138);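 also: A549 lung adenocarcinoma cells under basal conditions with no added stimulus; test concentration not given here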
- condition.details: higher = more signal
Note to self: values exactly at -0.005 are rule met. So z-score at or above -0.005 is rule met, below is rule not met.

{"compound": "C[C@@]1([C@@H](NC(=O)c2ccccc2)c2ccc(-c3ccccc3)cc2)C[C@H]1C1CCCCC1", "discrete.label": "rule not met"}
{"compound": "O=C1OCCC/C=C\\[C@H]2OC34C=CCN(CCN5CCOCC5)C(=O)[C@H]3N(CCCO)C(=O)[C@@H]4C12 (some centres not stated)", "discrete.label": "rule not met"}
{"compound": "COC(=O)[C@@]1(Cc2ccc(F)cc2)[C@H]2c3cc(C(=O)N4CCCC4)n(Cc4cc(C)n(C)n4)c3C[C@H]2CN1C(=O)c1ccccc1", "discrete.label": "rule met"}
{"compound": "CN1C(=O)[C@]2(Cc3ccccc3)N=C(c3ccc(OCCCO)cc3)O[C@@H]2c2ccccc21", "discrete.label": "rule met"}
{"compound": "CN(C)CCCCCCNC(=O)[C@@H]1C[C@@H]2C(=O)N[C@@H](CCCCN)C(=O)N2[C@@H]1c1cccc(OCCO)c1", "discrete.label": "rule met"}
{"compound": "CCOC(=O)[C@H]1CC=C2CC1C(=O)N1CCC[C@@H]1[C@@H]2O[Si](C)(C)C(C)(C)C (some centres not stated)", "discrete.label": "rule not met"}
{"compound": "CCOC(=O)C[C@H]1[C@H](OC(=O)Cc2ccc3c(c2)OCO3)[C@@H](NC(=O)c2ccc(-c3ccccc3)cc2)c2cc(OCCCO)ccc2N1C(=O)c1ccc2ccccc2n1", "discrete.label": "rule not met"}
